All figures here come from patent US10669240B2.

# SUBJECT_OF_TEST: DYRK1A (Homo sapiens (Human), UniProt Q13627)
# METHOD_NOTES: DYRK1A activity Tau assay: pSer396 Tau in SH-SY5Y cells by ELISA / western blot
# MEASUREMENT_SETUP: overnight (16-18 h) exposure
Below, each of the molecules is paired with its reported EC50 value.
// units = µM; emit number, no label

CC(C)NC(=O)c1n[nH]c2ccc(-c3cncc(CN4CCC4)c3)cc12 | 0.043
CN(C)[C@H]1CC[C@@H](NC(=O)c2n[nH]c3ccc(-c4cccnc4)cc23)CC1 | 0.037
O=C(NC1Cc2ccccc2C1)c1n[nH]c2ccc(-c3cccnc3)cc12 | 0.052
CN(C)Cc1ccc(NC(=O)c2n[nH]c3ccc(-c4cccnc4)cc23)cc1 | 0.01
O=C(NCCN1CCCCC1)c1n[nH]c2ccc(-c3cccc(F)c3F)cc12 | 0.075

Record O=C(NC1CCN(CC2CCC2)CC1)c1n[nH]c2ccc(-c3cccnc3)cc12 , field EC50: 0.011

According to the records, this molecule CC1CCN(Cc2cncc(-c3ccc4[nH]nc(C(=O)Nc5cccnc5)c4c3)c2)CC1 displays EC50 of 0.002

---

# SUBJECT_OF_TEST: DYRK1A (Homo sapiens (Human), UniProt Q13627)
# METHOD_NOTES: DYRK1A activity Tau assay: pSer396 Tau in SH-SY5Y cells by ELISA / western blot
# MEASUREMENT_SETUP: overnight (16-18 h) exposure
MEASUREMENT_TYPE: EC50
Enter the number, and then the unit.

Example cases with answers are listed next.
CC[C@H](C)NC(=O)c1n[nH]c2ccc(-c3cccnc3)cc12 | 20 nM
CC(C)(F)CN1CCC(NC(=O)c2n[nH]c3ccc(-c4cncc(Cl)c4)cc23)CC1 | 30 nM

O=C(Nc1ncc(F)cc1F)c1n[nH]c2ccc(-c3cncc(CN4CCCCC4)c3)cc12 has a reported EC50 of 3 nM
